// reported inhibition at 0.1 µM for each item listed
Target: human recombinant serotonin (5-Hydroxytryptamine) 5-HT2A receptor (Homo sapiens, UniProt P28223)
Construct: expressed in transfected cells; host or cells: CHO-K1
Sequence (P28223 whole entry): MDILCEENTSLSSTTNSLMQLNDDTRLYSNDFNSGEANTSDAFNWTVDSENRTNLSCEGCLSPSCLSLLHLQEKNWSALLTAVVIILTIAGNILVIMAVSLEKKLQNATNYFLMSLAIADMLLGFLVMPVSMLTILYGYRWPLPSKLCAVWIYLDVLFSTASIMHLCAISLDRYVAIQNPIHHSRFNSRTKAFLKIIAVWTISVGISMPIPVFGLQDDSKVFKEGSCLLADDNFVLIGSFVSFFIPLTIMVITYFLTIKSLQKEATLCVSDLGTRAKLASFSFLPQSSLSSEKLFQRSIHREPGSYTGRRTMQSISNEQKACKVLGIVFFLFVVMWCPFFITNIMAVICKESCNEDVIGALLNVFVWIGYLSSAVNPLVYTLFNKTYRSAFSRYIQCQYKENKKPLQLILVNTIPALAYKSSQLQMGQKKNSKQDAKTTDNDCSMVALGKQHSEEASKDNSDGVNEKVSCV
Assay: Serotonin 5-HT2A radioligand binding ([3H]Ketanserin)
Conditions: compound at 0.1 μM; read-out: Inhibition of ligand binding, Serotonin 5-HT2A (percent inhibition of specific binding)
Quantity: inhibition at 0.1 µM (%)

Given Smiles	Unit Tag	Quantitative Result
Cc1cc(C)c2c(c1)c1c(n2-c2cscc2-c2ccncc2)CCN(C)C1	%	45
Cc1ccc2c(c1)c1c(n2-c2cccc(-c3cc4ccccc4s3)c2)CCN(C)C1	%	86
Cc1ccc2c(c1)c1c(n2-c2cccc(-c3ccc(C)s3)c2)CCN(C)C1	%	102
Cc1ccc2c(c1)c1c(n2-c2cscc2-c2ccc(F)cc2)CCN(C)C1	%	83
Cc1ccc2c(c1)c1c(n2-c2cccc(-c3ccc4[nH]cnc4c3)c2)CCN(C)C1	%	92
Cc1ccc2c(c1)c1c(n2-c2cccc(-c3ccc(F)cc3)c2)CCN(C)C1	%	102
CNC(=O)c1cccc(-c2cscc2-n2c3c(c4cc(C)ccc42)CN(C)CC3)c1	%	83
Cc1ccc2c(c1)c1c(n2-c2cscc2-c2ccc3c(ccn3C)c2)CCN(C)C1	%	39
CNC(=O)c1cccc(-c2ccc(-n3c4c(c5cc(C)ccc53)CN(C)CC4)nc2)c1	%	55
Cc1ccc2c(c1)c1c(n2-c2ccccc2-c2cnccc2C)CCN(C)C1	%	48
Cc1cc(C)c2c(c1)c1c(n2-c2cccc3ncccc23)CCN(C)C1	%	1
Cc1cc(C)c2c(c1)c1c(n2-c2ccc3ncccc3c2)CCN(C)C1	%	13
CN1CCc2c(c3cc(Cl)ccc3n2-c2cscc2-c2ccccc2)C1	%	86
Cc1ccc2c(c1)c1c(n2-c2ccc(-c3ccc(S(N)(=O)=O)cc3)cn2)CCN(C)C1	%	82
CN1CCc2c(c3cc(Cl)ccc3n2-c2cscc2-c2ccc(F)cc2)C1	%	81
Cc1ccc2c(c1)c1c(n2-c2ccccc2-c2ccc(F)cc2)CCN(C)C1	%	93
Cc1ccc2c(c1)c1c(n2-c2cscc2-c2cc3ccccc3s2)CCN(C)C1	%	32

---

Molecular target: human recombinant dopamine D2L receptor (Homo sapiens)
Construct: expressed in transfected cells; host or cells: CHO
Sequence (P14416 whole entry): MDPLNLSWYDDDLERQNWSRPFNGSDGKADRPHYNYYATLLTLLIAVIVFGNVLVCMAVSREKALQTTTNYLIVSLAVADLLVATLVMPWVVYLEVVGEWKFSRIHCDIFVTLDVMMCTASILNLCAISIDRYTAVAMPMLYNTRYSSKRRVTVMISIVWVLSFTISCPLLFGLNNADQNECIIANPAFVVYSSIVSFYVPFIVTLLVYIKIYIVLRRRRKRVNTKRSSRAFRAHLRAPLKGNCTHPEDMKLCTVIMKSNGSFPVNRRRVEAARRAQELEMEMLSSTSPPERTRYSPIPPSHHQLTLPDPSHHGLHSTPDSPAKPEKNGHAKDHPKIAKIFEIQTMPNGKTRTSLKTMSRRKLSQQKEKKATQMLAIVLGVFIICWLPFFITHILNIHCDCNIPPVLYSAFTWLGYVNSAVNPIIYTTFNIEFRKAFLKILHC
Test: Dopamine D2L radioligand binding ([3H]Spiperone)
Settings: read-out: Dopamine D2L (1 μM), percent inhibition of specific binding; compound at 1 μM; 0.16 nM [3H]Spiperone
Quantity: inhibition at 1 µM (%)

Given Smiles	Quantitative Result
CNC(=O)c1ccc(-c2ccccc2-n2c3c(c4cc(C)ccc42)CN(C)CC3)cc1	16
CN1CCc2c(c3cc(Cl)ccc3n2-c2cscc2-c2ccncc2)C1	20
CN1CCc2c(c3cc(Cl)ccc3n2-c2cscc2-c2cccnc2)C1	26
Cc1ccc2c(c1)c1c(n2-c2cscc2-c2c(C)noc2C)CCN(C)C1	16
Cc1ccc2c(c1)c1c(n2-c2cccc3ccncc23)CCN(C)C1	11

---

Molecular target: human recombinant adrenergic α2C receptor (Homo sapiens)
Construct: expressed in transfected cells; host or cells: insect Sf9 cells
Sequence (P18825 1-462): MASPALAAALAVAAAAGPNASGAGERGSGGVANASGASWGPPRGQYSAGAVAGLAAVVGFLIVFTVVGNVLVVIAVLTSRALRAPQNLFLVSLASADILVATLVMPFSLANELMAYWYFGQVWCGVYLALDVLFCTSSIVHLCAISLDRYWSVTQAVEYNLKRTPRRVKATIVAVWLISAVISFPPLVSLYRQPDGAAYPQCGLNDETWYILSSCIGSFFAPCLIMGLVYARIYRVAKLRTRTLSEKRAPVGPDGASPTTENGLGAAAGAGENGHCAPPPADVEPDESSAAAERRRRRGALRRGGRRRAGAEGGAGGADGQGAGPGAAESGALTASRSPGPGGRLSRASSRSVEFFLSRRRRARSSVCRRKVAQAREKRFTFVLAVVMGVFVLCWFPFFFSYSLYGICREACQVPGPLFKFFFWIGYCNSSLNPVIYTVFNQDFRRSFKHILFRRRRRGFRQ
Assay: Adrenergic α2C radioligand binding ([3H]MK-912)
Details: read-out: Adrenergic (0.1 μM) a2C, percent inhibition of specific binding; compound at 0.1 μM; 1 nM [3H]MK-912
Tick Criterion met if inhibition at 0.1 µM is 10% or greater. Tick Criterion not met if inhibition at 0.1 µM is less than 10%.

Compound	Class Name
Cc1csc(-c2cscc2-n2c3c(c4cc(C)ccc42)CN(C)CC3)c1 [Compound 50]	Criterion met
Cc1ccc2c(c1)c1c(n2-c2cscc2-c2ccc(C)s2)CCN(C)C1 [Compound No. 79]	Criterion met
Cc1cc(C)c2c(c1)c1c(n2-c2cscc2-c2ccncc2)CCN(C)C1 [Compound No. 149]	Criterion not met
Cc1ccc2c(c1)c1c(n2-c2cscc2-c2c(C)noc2C)CCN(C)C1 [Compound 62]	Criterion met
Cc1ccc2c(c1)c1c(n2-c2ccc(-c3cncc4ccccc34)cn2)CCN(C)C1 [Compound No. 135]	Criterion met
Cc1ccc2c(c1)c1c(n2-c2cnc3ccccc3c2)CCN(C)C1 [Compound No. 88]	Criterion not met
Cc1ccc2c(c1)c1c(n2-c2ccoc2)CCN(C)C1 [Compound 15]	Criterion not met
